So I've got a bunch of compounds here, and I need their EC50 values.
molecular target: human D2 receptor (Homo sapiens (Human)); assay: Dopamine D2 receptor agonism, calcium mobilization assay; conditions: HEK293/G15 cells expressing human D2 receptor, calcium flux
Sequence (P14416 whole entry): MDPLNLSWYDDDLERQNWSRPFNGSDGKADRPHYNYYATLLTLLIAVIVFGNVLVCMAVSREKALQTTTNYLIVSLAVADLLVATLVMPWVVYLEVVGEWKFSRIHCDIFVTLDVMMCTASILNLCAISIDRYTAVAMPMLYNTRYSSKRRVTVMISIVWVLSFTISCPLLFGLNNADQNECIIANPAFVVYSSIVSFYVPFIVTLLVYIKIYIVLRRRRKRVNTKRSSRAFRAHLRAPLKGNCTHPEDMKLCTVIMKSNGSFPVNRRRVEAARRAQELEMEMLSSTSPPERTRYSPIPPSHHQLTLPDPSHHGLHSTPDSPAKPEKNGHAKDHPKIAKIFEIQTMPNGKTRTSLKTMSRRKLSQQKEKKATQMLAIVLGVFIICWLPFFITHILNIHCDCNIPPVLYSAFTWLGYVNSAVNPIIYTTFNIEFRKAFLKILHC

INSERT INTO measurements (compound, result) VALUES
  ('CCCN1CCC[C@@H]2CC3=C(CCCC3=O)C[C@H]21 [(Ia), reference compound]', '> 1 µM');

### Prompt Look up EC50 for this compound: CCCN1CCC[C@@H]2Cc3c(ccc(O)c3OS(=O)(=O)O)C[C@H]21 [(Id-iia)]
### Response > 30 µM
